- method.notes: in vitro
- condition.label: African green monkey, CC50, Vero cells, MTT; concentration causing 50% cell death
endpoint: CC50 (µM)
Write the answer as a number in µM, unit excluded.

Ask | Item under review: Cc1[nH]c(=O)n(CCCc2cn(C3OC(CO)C(O)C3O)nn2)c(=O)c1CCCc1cn(C2OC(CO)C(O)C2O)nn1 (stereo not drawn) [Compound 11e] . Reported CC50?
Reply | 394

Ask | Reported CC50 for CC(=O)OCC1OC(n2cc(CCCCn3c(=O)c4nc5ccccc5nc4n(CCCCc4cn(C5OC(COC(C)=O)C(OC(C)=O)C5OC(C)=O)nn4)c3=O)nn2)C(OC(C)=O)C1OC(C)=O (stereo not drawn) : what is it?
Reply | 18

* * *

- method.notes: in vitro
- condition.label: dog
endpoint: CC50

Ask | Return reported CC50; argument: Cc1cc(=O)n(Cc2cn(C3OC(CO)C(O)C3O)nn2)c(=O)n1Cc1cn(C2OC(CO)C(O)C2O)nn1 (stereo not drawn)
Reply | > 543 µM

Ask | Consider the compound shown here: Cc1[nH]c(=O)n(CCCCc2cn(C3OC(CO)C(O)C3O)nn2)c(=O)c1CCCCc1cn(C2OC(CO)C(O)C2O)nn1 (stereo not drawn) [Compound 11f] What is its recorded CC50?
Reply | > 471 µM

Ask | Request the reported CC50 associated with CC(N)C12CC3CC(CC(C3)C1)C2 (stereo not drawn) [Rimantadine, reference compound]
Reply | 340 µM

Ask | Any idea what CC50 was measured for CCC(CC)O[C@@H]1C=C(C(=O)O)C[C@H](N)[C@H]1NC(C)=O [Oseltamivir carboxylate, reference compound] ?
Reply | > 200 µM

Ask | So what's the measured CC50 for this one? CC(=O)OCC1OC(n2cc(CCCCc3c(C)[nH]c(=O)n(CCCCc4cn(C5OC(COC(C)=O)C(OC(C)=O)C5OC(C)=O)nn4)c3=O)nn2)C(OC(C)=O)C1OC(C)=O (stereo not drawn) [Compound 11d]
Reply | > 338 µM

Ask | Given CC(=O)OCC1OC(n2cc(CCCCn3c(=O)c4ccccc4n(CCCCc4cn(C5OC(COC(C)=O)C(OC(C)=O)C5OC(C)=O)nn4)c3=O)nn2)C(OC(C)=O)C1OC(C)=O (stereo not drawn) , state its recorded CC50.
Reply | > 324 µM

Ask | Recorded CC50 for CC(=O)OCC1OC(n2cc(CCCc3c(C)[nH]c(=O)n(CCCc4cn(C5OC(COC(C)=O)C(OC(C)=O)C5OC(C)=O)nn4)c3=O)nn2)C(OC(C)=O)C1OC(C)=O (stereo not drawn) [Compound 11c] , please?
Reply | > 349 µM

Ask | Name the reported CC50 value associated with the compound Cc1cc(=O)n(CCCc2cn(C3OC(CO)C(O)C3O)nn2)c(=O)n1CCCc1cn(C2OC(CO)C(O)C2O)nn1 (stereo not drawn)
Reply | > 493 µM

Ask | # input compound: CC(=O)OCC1OC(n2cc(CCCCn3c(C)cc(=O)n(CCCCc4cn(C5OC(COC(C)=O)C(OC(C)=O)C5OC(C)=O)nn4)c3=O)nn2)C(OC(C)=O)C1OC(C)=O (stereo not drawn) ; wanted: its CC50
Reply | > 338 µM

Ask | Quick check: CC50 of CC(=O)OCC1OC(n2cc(CCCCn3c(=O)c4nc5ccccc5nc4n(CCCCc4cn(C5OC(COC(C)=O)C(OC(C)=O)C5OC(C)=O)nn4)c3=O)nn2)C(OC(C)=O)C1OC(C)=O (stereo not drawn) ?
Reply | > 308 µM

Ask | Name the recorded CC50 for O=c1c2nc3ccccc3nc2n(CCCCc2cn(C3OC(CO)C(O)C3O)nn2)c(=O)n1CCCCc1cn(C2OC(CO)C(O)C2O)nn1 (stereo not drawn) .
Reply | > 414 µM

Ask | What CC50 value was documented for this compound, O=c1c2ccccc2n(Cc2cn(C3OC(CO)C(O)C3O)nn2)c(=O)n1Cc1cn(C2OC(CO)C(O)C2O)nn1 (stereo not drawn) ?
Reply | > 510 µM

Ask | Query: CC50; subject: O=c1c2ccccc2n(CCCCc2cn(C3OC(CO)C(O)C3O)nn2)c(=O)n1CCCCc1cn(C2OC(CO)C(O)C2O)nn1 (stereo not drawn)
Reply | > 446 µM

Ask | Fill in the blank: the reported CC50 of O=c1c2ccccc2n(CCCc2cn(C3OC(CO)C(O)C3O)nn2)c(=O)n1CCCc1cn(C2OC(CO)C(O)C2O)nn1 (stereo not drawn) is ____.
Reply | > 465 µM

Ask | Query: CC50; subject: Cc1cc(=O)n(CCCCc2cn(C3OC(CO)C(O)C3O)nn2)c(=O)n1CCCCc1cn(C2OC(CO)C(O)C2O)nn1 (stereo not drawn)
Reply | > 471 µM

Ask | Dear colleague, I am looking for the recorded CC50 of the following compound: O=c1c2nc3ccccc3nc2n(CCCc2cn(C3OC(CO)C(O)C3O)nn2)c(=O)n1CCCc1cn(C2OC(CO)C(O)C2O)nn1 (stereo not drawn)
Reply | > 431 µM

Ask | Field request: CC50 | item: Cc1[nH]c(=O)n(CCCc2cn(C3OC(CO)C(O)C3O)nn2)c(=O)c1CCCc1cn(C2OC(CO)C(O)C2O)nn1 (stereo not drawn) [Compound 11e]
Reply | > 493 µM

Ask | I'd like to know its CC50. The compound in question is O=c1c2nc3ccccc3nc2n(Cc2cn(C3OC(CO)C(O)C3O)nn2)c(=O)n1Cc1cn(C2OC(CO)C(O)C2O)nn1 (stereo not drawn)
Reply | > 468 µM

* * *

- method.notes: in vitro
- condition.label: African green monkey, CC50, Vero cells, MTT; concentration causing 50% cell death
Can you tell me CC50 for the items I'm about to list?

Ask | Can you share its CC50? I mean this molecule: O=c1c2nc3ccccc3nc2n(Cc2cn(C3OC(CO)C(O)C3O)nn2)c(=O)n1Cc1cn(C2OC(CO)C(O)C2O)nn1 (centres unmarked)
Reply | > 468 µM

Ask | So what does the record say about CC50 for Cc1cc(CCCOc2c(C)cc(-c3noc(C(F)(F)F)n3)cc2C)on1 [Pleconaril, reference compound] ?
Reply | > 1000 µM

Ask | Reported CC50, molecule Cc1[nH]c(=O)n(CCCCc2cn(C3OC(CO)C(O)C3O)nn2)c(=O)c1CCCCc1cn(C2OC(CO)C(O)C2O)nn1 (centres unmarked) [Compound 11f] : ____
Reply | > 471 µM

Ask | Fill in: CC50 of O=c1c2nc3ccccc3nc2n(CCCc2cn(C3OC(CO)C(O)C3O)nn2)c(=O)n1CCCc1cn(C2OC(CO)C(O)C2O)nn1 (centres unmarked) is ___
Reply | > 431 µM

Ask | // returns reported CC50 for input O=c1c2nc3ccccc3nc2n(CCCCc2cn(C3OC(CO)C(O)C3O)nn2)c(=O)n1CCCCc1cn(C2OC(CO)C(O)C2O)nn1 (centres unmarked)
Reply | > 414 µM

* * *

- Test system: Vero cells
- condition.label: Vero cells, MTT; concentration causing 50% cell death
endpoint: CC50 (µM)
Respond with the bare value in µM.

Ask | State the recorded CC50 for this entry: CC(=O)OCC1OC(n2cc(CCCCn3c(=O)c4nc5ccccc5nc4n(CCCCc4cn(C5OC(COC(C)=O)C(OC(C)=O)C5OC(C)=O)nn4)c3=O)nn2)C(OC(C)=O)C1OC(C)=O (centres unmarked) [Compound 5f]
Reply | 17.8

Ask | Would you mind telling me what CC50 value was observed for CC(=O)OCC1OC(n2cc(CCCCn3c(C)cc(=O)n(CCCCc4cn(C5OC(COC(C)=O)C(OC(C)=O)C5OC(C)=O)nn4)c3=O)nn2)C(OC(C)=O)C1OC(C)=O (centres unmarked) [Compound 2f] ?
Reply | 17.7

* * *

- System: PC-3
- method.notes: Cytotoxicity assay (Cytell Cell Imaging, DAPI/propidium iodide)
- Assay type: cell-based
- condition.label: cytotoxic activity, human prostate adenocarcinoma, read-out: IC50 Cancer Cell Lines PC-3
endpoint: pIC50
Just so you know, pIC50 here is -log10 of the concentration in molar units; reply with that number alone.

Ask | Could you share which pIC50 value was measured for O=c1[nH]cc(F)c(=O)[nH]1 [5-Fluorouracil, reference compound] ?
Reply | 4.99

Ask | Quick check: pIC50 of CC(=O)OCC1OC(n2cc(CCCCn3c(=O)c4nc5ccccc5nc4n(CCCCc4cn(C5OC(COC(C)=O)C(OC(C)=O)C5OC(C)=O)nn4)c3=O)nn2)C(OC(C)=O)C1OC(C)=O (centres unmarked) [Compound 5f] ?
Reply | 4.18

* * *

- method.notes: in vitro
- condition.label: African green monkey, CC50, Vero cells, MTT; concentration causing 50% cell death
For each of the molecules below, state its CC50.

Ask | # lookup: CC50 of O=c1c2ccccc2n(CCCc2cn(C3OC(CO)C(O)C3O)nn2)c(=O)n1CCCc1cn(C2OC(CO)C(O)C2O)nn1 (stereo not drawn)
Reply | > 465 µM

Ask | Using the record for Cc1cc(=O)n(CCCCc2cn(C3OC(CO)C(O)C3O)nn2)c(=O)n1CCCCc1cn(C2OC(CO)C(O)C2O)nn1 (stereo not drawn) , report its CC50.
Reply | > 471 µM

Ask | Quick one: CC50 of Cc1cc(=O)n(Cc2cn(C3OC(CO)C(O)C3O)nn2)c(=O)n1Cc1cn(C2OC(CO)C(O)C2O)nn1 (stereo not drawn) ?
Reply | > 543 µM

Ask | Endpoint output: CC50 of O=c1c2ccccc2n(CCCCc2cn(C3OC(CO)C(O)C3O)nn2)c(=O)n1CCCCc1cn(C2OC(CO)C(O)C2O)nn1 (stereo not drawn) . Value?
Reply | > 446 µM

Ask | Tell me the measured CC50 of O=c1c2ccccc2n(Cc2cn(C3OC(CO)C(O)C3O)nn2)c(=O)n1Cc1cn(C2OC(CO)C(O)C2O)nn1 (stereo not drawn) , please.
Reply | 381 µM

Ask | // returns reported CC50 for input CC(=O)OCC1OC(n2cc(CCCCn3c(C)cc(=O)n(CCCCc4cn(C5OC(COC(C)=O)C(OC(C)=O)C5OC(C)=O)nn4)c3=O)nn2)C(OC(C)=O)C1OC(C)=O (stereo not drawn)
Reply | 18 µM
